The entries below come with measured TGI values attached.
# Test system: TK-10 renal
# assay-protocol: NCI tumour cell line growth inhibition, 48 h

S=C1NC2=C(CCOc3c2ccc2ccccc32)C(c2ccc(Cl)cc2)N1 (stereo unspecified)	> 100 µM
O=C(O)c1ccccc1/C=C1/Nc2ccccc2C1=O	> 100 µM
CCCN(CCC)c1c([N+](=O)[O-])cc(C(N)=O)cc1[N+](=O)[O-]	> 100 µM
CC1CCCc2c(CC3CC(=O)NC(=O)C3)nc(N)nc21 (stereo unspecified)	> 100 µM

Request: Please give the measured TGI for this compound: CC1(C)CC(=O)C=C(NC(=O)c2ccccc2)C1
Result: > 100 µM

Request: For the compound shown here, CCc1cc(Nc2nccc(-c3c(-c4ccc(OC)c(C(=O)Nc5c(F)cccc5F)c4)nc4ccccn34)n2)c(OC)cc1N1CCC(N2CCN(S(C)(=O)=O)CC2)CC1 , give the reported TGI.
Result: > 100 µM

Request: Given CN(C)CC1CCCCCCCCCCC1=O (stereo unspecified) , state its recorded TGI.
Result: > 100 µM

Request: Which TGI reading was recorded for the compound Oc1cccc(-c2cn3cc(Cl)ccc3n2)c1 ?
Result: > 100 µM

Request: Looking for the measured TGI of O=C1/C(=C/c2ccc(Cl)cc2)COc2ccc(Br)cc21 , can you help?
Result: > 100 µM

Request: Record request: TGI value, item BrCC[N+]12CCCN1CCC2
Result: 27.9 µM

Request: What value of TGI has been recorded for this entry: C/C(CC(=O)Nc1cc(Cl)c(Cl)cc1Cl)=N\NS(=O)(=O)c1ccc(C)cc1
Result: > 100 µM

###

# System: SNB-19 CNS
# assay-protocol: NCI tumour cell line growth inhibition, 48 h
Listed here are compounds together with their documented TGI.
Response body: numeric value in µM, unit text excluded.

Solved entries (count: 3):
Cc1ccc(/C=C2\CN(C(=O)CCN3CCC(=NO)CC3)C/C(=C\c3ccc(C)cc3)C2=O)cc1	4.43
N#Cc1nc(-c2ccccn2)c(-c2ccccn2)nc1C#N	22
CCOC(=O)/C=C/C(Br)=C(Br)/C=C/C(=O)OCC	33.6

Here's the next entry for you.
Request: Entry under review: O=C1CCc2c(sc3ncnc(Nc4cccc(Br)c4)c23)C1 . Reported TGI?
Result: 19.2

###

# Tested on: SF-539 CNS
# assay-protocol: NCI tumour cell line growth inhibition, 48 h
Lab note: anything with TGI at or over 10 µM counts as met; the rest go in not met.

COc1ccc(C(=O)C(CN(C)C)c2ccccc2)cc1 (centres undefined)	met
CCN(CC)CCn1nc2c3c(cccc3c1=O)-c1ccccc1-2	met
COC(=O)[C@@H](C)C[C@H](Cc1ccccc1)NC(=O)c1csc([C@@H](C[C@H](C(C)C)N(C)C(=O)[C@@H](NC(=O)CN(C)C)C2CC2)OC(C)=O)n1	not met

Request: Reported TGI at or above 10 µM? Cc1ccc(/C=C2\CN(C(=O)CCN3CCC(=NO)CC3)C/C(=C\c3ccc(C)cc3)C2=O)cc1
Result: not met

Request: # bool: TGI of CCN1CCN(c2nc(NNC(=O)c3cccc(OC)c3)nc(N3CCN(C(c4ccccc4)c4ccccc4)CC3)n2)CC1 >= 10 µM
Result: not met

Request: Record NC(=S)c1cn(C2OC(CO)C(O)C2O)c2ncnc(N)c12 (centres undefined) ; criterion: TGI no lower than 10 µM. Met?
Result: not met

Request: Reported TGI at or above 10 µM? C/C(=C\COc1ccc2ccc(=O)oc2c1)CCC(=O)C(C)(C)O
Result: met

Request: Is it the case that COc1cc2c3c4[n+](cc2c(OC)c1OC)CCC4CCC3 (centres undefined) has TGI reaching or exceeding 10 µM?
Result: met

Request: Dear colleague, could you confirm whether O=C(O)CCC(NC(=O)/C(=C/c1ccccc1)NC(=O)c1ccccc1)C(=O)O (centres undefined) has TGI at or above 10 µM?
Result: met

###

# Test system: RXF 393 renal
# assay-protocol: NCI tumour cell line growth inhibition, 48 h
attribute-measured: TGI (µM)
Only the number, expressed in µM, is required.

C=C(C)[C@@H]1CC[C@@H]2C(=CC[C@]3(C)C([C@H](C)CC/C=C(/C)C(=O)O)CC[C@@]23C)[C@@]1(C)CCC(=O)O (stereo partly specified)	35.1
N#CC(NNC(=O)c1c(Cl)c(Cl)c(Cl)c(Cl)c1-c1nc2ccc(C(=O)c3ccccc3)cc2[nH]1)c1cccc(Oc2ccccc2)c1 (stereo unspecified)	55.5
N#CCCCCCn1c2ccccc2c2c3c(c4c5ccccc5[nH]c4c21)C(=O)N(O)C3=O	4.69
CC(C)(CO)Nc1c(O)c2c(c(O)c1Cl)C(=O)C=CC2=O	3.31
COc1ccccc1NC(=O)NS(=O)(=O)c1ccccc1	98.2

We now examine a further molecule.
Request: Need TGI of O=C1/C(=C/c2ccccc2)CN(C(=O)Oc2ccccc2)C/C1=C\c1ccccc1 , thanks.
Result: 31.4

###

# System: SK-MEL-2 melanoma
# assay-protocol: NCI tumour cell line growth inhibition, 48 h
Listing of entries alongside the reported TGI.
Form entry: value (µM) — number only.

Reference set, count: 3
C=C(C)[C@@H]1CC[C@@H]2C(=CC[C@]3(C)C([C@H](C)CC/C=C(/C)C(=O)O)CC[C@@]23C)[C@@]1(C)CCC(=O)O (some centres undefined)	45.1
CO/C=C(/C(=O)OC)c1ccccc1[C@H]1C[C@@H]1c1ccccc1	34.8
O=C1CCc2c(sc3ncnc(Nc4cccc(Br)c4)c23)C1	23.8

Field: next compound
Request: I would be grateful if you could share the reported TGI for CCC[CH2][Sn]1([CH2]CCC)[O]N=Cc2ccccc2[O]1 .
Result: 1.07

###

# GI50 values compiled below
# Test system: CCRF-CEM leukemia
# assay-protocol: NCI tumour cell line growth inhibition, 48 h

// solved cases for GI50 follow
Nc1ccc(Sc2ccc3c4c2cccc4c(=O)n2c4ccccc4nc32)cc1	2350 nM
COc1ccc2c(c1)/C(=N/OC(C)=O)c1c-2c(Nc2ccc(/C(C)=N/OC(C)=O)cc2)nc2ccccc12	23900 nM
O=C(N/N=C\c1cc(Br)cc(Br)c1O)N/N=C/c1cc(Br)cc(Br)c1O	534 nM
CN1CCN(Cc2ccc(NC(=O)c3cncc(C#Cc4cncc5[nH]ncc45)c3)cc2C(F)(F)F)CC1	1250 nM

Now for another entry.
Request: Query (molecule): Cn1cc(C2=C(c3cccc(Cl)c3)C(=O)NC2=O)c2ccccc21 ; field requested: GI50
Result: > 25000 nM

###

# Tested on: UACC-62 melanoma
# assay-protocol: NCI tumour cell line growth inhibition, 48 h
A collection of compounds and their measured TGI

COc1ccc(OC)c(/C=C/C(=O)c2ccc(SC)cc2)c1	29.1 µM

Now look at this entry.
Request: Item O=[N+]([O-])C1(CO)COC2(OC1)c1ccccc1-c1ccccc12 has what recorded TGI?
Result: > 100 µM

###

# System: HT29 colon
# assay-protocol: NCI tumour cell line growth inhibition, 48 h; in the data active = GI50 below about 0.43 µM; inactive = the rest
Response enum: 1 (yes) = active, 0 (no) = inactive

Request: Status in this test for NC(=S)c1cn(C2OC(CO)C(O)C2O)c2ncnc(N)c12 (stereo not given) ?
Result: 1 (yes)

Request: So what was the verdict on COC(=O)C([O][Ge]([CH3])([CH3])[CH3])c1ccccc1 (stereo not given) in this test?
Result: 0 (no)

Request: Please indicate how the test categorized Cc1cncc2cccc(S(=O)(=O)N3CCCNC[C@@H]3C)c12 .
Result: 0 (no)

Request: Test call, this compound: CCn1c(-c2nonc2N)nc2c(C#CC(C)(C)O)ncc(OCC3CCNCC3)c21
Result: 0 (no)

Request: Look up the recorded call for c1ccc(-c2nn(-c3ccccc3)[n+](-c3ccccc3-c3ccccc3)n2)cc1 in this test.
Result: 0 (no)

###

Attribute: GI50
# System: EKVX NSCLC
# assay-protocol: NCI tumour cell line growth inhibition, 48 h

Here's what some known entries look like.
CC(=O)O[C@H]1Cc2c([nH]c3ccccc23)[C@@H](c2ccc(Cl)cc2)N1C(=O)CCNC(C)(C)C	3.74 µM
c1ccc(-c2nn(-c3ccccc3)[n+](-c3ccccc3-c3ccccc3)n2)cc1	0.687 µM
COc1ccc(Nc2ccnc3cc(Cl)ccc23)cc1CN(CCCl)CCCl	1.9 µM

Request: What does the record list as GI50 for CCCCCCCC(=O)O[C@H]1[C@H]2[C@@H](CC1(C)C)C(=O)[C@]13O[C@H]1C(=O)[C@]1(CO1)[C@]23C ?
Result: 36.9 µM

Request: Bench note: what GI50 did CCN(CC)CCn1nc2c3c(cccc3c1=O)-c1ccccc1-2 show?
Result: 2.33 µM

Request: Quick check: GI50 of COC(=O)CCCCCCCCC(=O)c1c(C)[nH]c(/C=C2\N=C(c3ccc[nH]3)C=C2OC)c1C ?
Result: > 100 µM

Request: Endpoint output: GI50 of CCCCOc1nc2ccccc2cc1C1CNC(=O)c2ccccc2N1 (stereo not given) . Value?
Result: 5.15 µM

Request: Form field: reported GI50 of Cc1cncc2cccc(S(=O)(=O)N3CCCNC[C@@H]3C)c12
Result: 47.4 µM

Request: Quick check: GI50 of O=C(Nc1ccc(Oc2cccc(Cl)c2)c(Cl)c1)c1cccnc1 ?
Result: 3.62 µM

Request: Request the reported GI50 associated with CCN(Cc1cccc(C)c1)c1ccc(CO)c(Cl)c1
Result: 14.6 µM
